Provide the reported TGI of each item.
Tested on: IGROV1 ovarian
Assay: NCI tumour cell line growth inhibition, 48 h
Please state the figure in µM; there is no need to write the unit.

Simply: "CC1=NN(c2nc(N)nc(CCl)n2)C(C)(C)C1" , IGROV1 ovarian, TGI = 20.5

Simply: "NC(=O)c1c(-c2ccccc2)c(-c2ccccc2)cc2c(=O)c3ccccc3[nH]c12" , IGROV1 ovarian, TGI = 74.3

Simply: "CCOC(=O)c1c(C)n(Cc2ccc(Cl)cc2Cl)c2c1cc(O)c1[nH]c(Cc3ccccc3)nc12" , IGROV1 ovarian, TGI = 15.8

Simply: "O=C(NCCc1nccs1)c1cnc2c(S)cccc2c1" , IGROV1 ovarian, TGI = 24.7
